biological target: Peroxisome proliferator-activated receptor delta (Homo sapiens) (UniProt Q03181); experiment: qHTS assay to identify small molecule antagonists of the peroxisome proliferator-activated receptor delta (PPARd) signaling pathway (AID 743215); settings: HEK293H PPARd-UAS-bla, beta-lactamase FRET ratio, antagonist, 17 h; series mostly up to 62 µM;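 note: cells stimulated with agonist L165041 at 300 nM final during compound exposure; % is set by controls: 0 for no effect and ±100 for the full control effect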
Sequence (Q03181 whole entry, looked up): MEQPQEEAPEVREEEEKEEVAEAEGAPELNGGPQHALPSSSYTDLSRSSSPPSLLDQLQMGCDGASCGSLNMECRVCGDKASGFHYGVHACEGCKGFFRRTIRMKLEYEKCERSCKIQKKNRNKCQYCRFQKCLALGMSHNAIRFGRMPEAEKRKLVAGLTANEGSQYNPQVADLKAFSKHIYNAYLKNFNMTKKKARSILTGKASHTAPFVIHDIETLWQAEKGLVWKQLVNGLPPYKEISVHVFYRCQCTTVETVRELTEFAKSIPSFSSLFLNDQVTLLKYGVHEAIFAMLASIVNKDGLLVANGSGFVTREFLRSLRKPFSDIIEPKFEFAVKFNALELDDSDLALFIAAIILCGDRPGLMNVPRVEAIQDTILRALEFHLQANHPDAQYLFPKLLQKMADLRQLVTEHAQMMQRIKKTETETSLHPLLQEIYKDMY
Results filed as inconclusive are left out. Active and inactive are the calls of the source. Calls come from the whole dose curve; as a rule, active = well fitted inhibition curve with a large enough effect in the signal ratio in the repeat runs (not every such curve was filed as active); inconclusive = weak or mixed curves, or effect the other way; inactive = no such curve, though single readings can be large or run the other way; the % refers to the signal ratio.
PROPERTY_LABEL: ratio activity, negative = inhibition

These recorded examples may help you get a feel for the data.
MOLECULE: CC(N)C12CC3CC(CC(C3)C1)C2 (stereo not drawn)
TESTED_SYSTEM: Peroxisome proliferator-activated receptor delta (Homo sapiens) (UniProt Q03181)
VALUE_MEASURED: inactive

MOLECULE: CNCCO
TESTED_SYSTEM: Peroxisome proliferator-activated receptor delta (Homo sapiens) (UniProt Q03181)
VALUE_MEASURED: inactive

MOLECULE: CCC(C)(CCCC(C)C)OC(C)=O (stereo not drawn)
TESTED_SYSTEM: Peroxisome proliferator-activated receptor delta (Homo sapiens) (UniProt Q03181)
VALUE_MEASURED: inactive

MOLECULE: CCCCCCC1CCC(=O)O1 (stereo not drawn)
TESTED_SYSTEM: Peroxisome proliferator-activated receptor delta (Homo sapiens) (UniProt Q03181)
VALUE_MEASURED: inactive

MOLECULE: CC(C)(C#N)Nc1nc(Cl)nc(NC2CC2)n1
TESTED_SYSTEM: Peroxisome proliferator-activated receptor delta (Homo sapiens) (UniProt Q03181)
VALUE_MEASURED: inactive

MOLECULE: CN(C)C(=O)Oc1cccc([N+](C)(C)C)c1
TESTED_SYSTEM: Peroxisome proliferator-activated receptor delta (Homo sapiens) (UniProt Q03181)
VALUE_MEASURED: inactive

MOLECULE: N[C@@H](CCC(=O)O)C(=O)O
TESTED_SYSTEM: Peroxisome proliferator-activated receptor delta (Homo sapiens) (UniProt Q03181)
VALUE_MEASURED: inactive

MOLECULE: CCC(=O)OCc1ccccc1
TESTED_SYSTEM: Peroxisome proliferator-activated receptor delta (Homo sapiens) (UniProt Q03181)
VALUE_MEASURED: inactive

MOLECULE: Cc1cc(C)c(N=Nc2c(O)c(S(=O)(=O)O)cc3cc(S(=O)(=O)O)ccc23)cc1C
TESTED_SYSTEM: Peroxisome proliferator-activated receptor delta (Homo sapiens) (UniProt Q03181)
VALUE_MEASURED: 0.853% [at 6.26 µM] (inactive)

MOLECULE: CC(C)C(=O)OC(=O)C(C)C
TESTED_SYSTEM: Peroxisome proliferator-activated receptor delta (Homo sapiens) (UniProt Q03181)
VALUE_MEASURED: inactive

Need ratio activity, negative = inhibition of [Ca+2] , thanks.
inactive

Do the same for O=C1c2ccccc2C(=O)c2cc(O)ccc21 please
inactive

Do the same for COCCOC[C@H](CC1(C(=O)NC2CCC(C(=O)O)CC2)CCCC1)C(=O)Oc1ccc2c(c1)CCC2 (stereo partly drawn) please
inactive

Do the same for CCOC(=O)OC(C)OC1=C(C(=O)Nc2ccccn2)N(C)S(=O)(=O)c2ccccc21 (stereo not drawn) please
inactive

Do the same for NC(=O)N[C@@H](CCC(=O)O)C(=O)O please
inactive

Do the same for CCOCC(C)O (stereo not drawn) please
inactive

Do the same for NC(CCC(=O)O)C(=O)O (stereo not drawn) please
inactive
